Assign Experimental % binding to each entry below.
Tested on: PP2A-B55α
Test: Single alanine mutational scan, YFP-tagged interactors immunoprecipitated from HeLa cells, Western blot
Format: binding, human
Settings: single alanine mutant of YFP-tagged CDCA4
Respond with the figure and its unit, in that order.

-- ask Please supply the value of reported Experimental % binding for the item CDCA4 N55: CDCA4, N55 to alanine (protein, UniProt Q9BXL8 1-241, looked up, variant N55A) Cell division …: MFARGLKRKCVGHEEDVEGALAGLKTVSSYSLQRQSLLDMSLVKLQLCHMLVEPALCRSVLIANTVRQIQEEMTQDGTWRTVAPQAAERAPLDRLVSTEILCRAAWGQEGAHPAPGLGDGHTQGPVSDLCPVTSAQAPRHLQSSAWEMDGPRENRGSFHKSLDQIFETLETKNPSCMEELFSDVDSPYYDLDTVLTGMMGGARPGPCEGLEGLAPATPGPSSSCKSDLGELDHVVEILVET
-- reply 99%

-- ask Supply Experimental % binding value. Item: CDCA4 L61: CDCA4, L61 to alanine (protein, UniProt Q9BXL8 1-241, looked up, variant L61A) Cell division …: MFARGLKRKCVGHEEDVEGALAGLKTVSSYSLQRQSLLDMSLVKLQLCHMLVEPNLCRSVAIANTVRQIQEEMTQDGTWRTVAPQAAERAPLDRLVSTEILCRAAWGQEGAHPAPGLGDGHTQGPVSDLCPVTSAQAPRHLQSSAWEMDGPRENRGSFHKSLDQIFETLETKNPSCMEELFSDVDSPYYDLDTVLTGMMGGARPGPCEGLEGLAPATPGPSSSCKSDLGELDHVVEILVET
-- reply 28%
